# Tested on: Chordin-like protein 2 (CHRDL2)
# MEASUREMENT DESCRIPTION: CHRDL2 small-molecule binders, primary screen, biochemical, small-molecule microarray, 635 nm fluorescence (AID 1126);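 also: printed compound slides probed with Chrdl2 protein at 4 µg/mL for 1 h at 4 C; score merges 667 nm emission intensity with signal to noise over three replicate slides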
# SETUP CONDITIONS: small-molecule microarray binding, fluorescence 635 nm; higher = more signal
Mark no for composite z-score values under -0.1, and yes for everything at or above.

Study these solved cases before continuing.
MOLECULE	CATEGORY
O=C1c2ccccc2C(=O)c2cc([C@H]3Oc4ccccc4S(=O)(=O)N4CCC[C@@H]34)ccc21	no
CC(C)C(CO)N1C(=O)[C@@H]2[C@H]3C(=O)OCC=C[C@H]3OC23C=CCN(Cc2ccccc2)C(=O)[C@@H]13 (stereo partly drawn)	no
CO[C@H]1O[C@H](CO)[C@@H](OC(=O)Nc2ccccc2)[C@H](OC(=O)Nc2ccccc2-c2ccccc2)[C@@H]1OC(=O)Nc1ccccc1-c1ccccc1	no
CC(C)C(=C=CC[C@@H](O)c1ccc(CO)o1)CCO	yes
CC(C)(C)OC(=O)CC[C@]1(C(=O)NCc2ccccc2)COC(c2ccc(OCCCO)cc2)=N1	no

Determine whether this molecule has composite z-score no lower than -0.1: COC(=O)C1=CC(c2ccc(CO)cc2)=CC(C2CC2)N(C)C=C1C(=O)OC (stereo not drawn)
no

# iterate: "C=C(COC)C(=O)CC[C@H](OC(=O)c1ccccc1-c1ccccc1C(=O)O)c1ccccc1OCCO"
yes

Follow-up item: "O=C1N(CCS(=O)(=O)c2ccccc2)Cc2ccccc2[C@@H]2OC(c3ccc(OCCCO)cc3)=N[C@]12Cc1ccccc1"
yes

Data origin: PubChem BioAssay
